System: HCT116 WT cells
assay-text: HCT116 WT cell proliferation / viability (CellTiter-Glo, 6 days)
Type: cell-based
measurement-setup: Homo sapiens, HCT-116, 144 h, HCT116 WT cells, 6 days, CellTiter-Glo; read-out: HCT-116 WT IC50
pIC50: −log10 of the molar value.
Label true when pIC50 is at or above 5; otherwise label false.

[[record]]
given_smiles = "Nc1nc2cnc(C(=O)N(Cc3ccc(C(F)(F)F)nn3)CC(F)(F)F)cc2c2c1COC2"
assigned_label = "false"

[[record]]
given_smiles = "Nc1nc2cnc(C(=O)N(Cc3ccc(C(F)(F)F)nn3)C3CC3)cc2c2c1COC2"
assigned_label = "false"

[[record]]
given_smiles = "Nc1nc2ccc(C(=O)N(Cc3ccc(C(F)(F)F)nn3)C3CCC3)cc2c2c1COC2"
assigned_label = "true"

[[record]]
given_smiles = "Nc1nc2cc(F)c(C(=O)N(Cc3ccc(C(F)(F)F)nn3)C3CC3)cc2c2c1COC2"
assigned_label = "true"

[[record]]
given_smiles = "C[C@H]1OCc2c1c(N)nc1cnc(C(=O)N(Cc3ccc(C(F)(F)F)cn3)C34CC(C3)C4)cc21"
assigned_label = "true"

[[record]]
given_smiles = "CN(Cc1ccc(S(F)(F)(F)(F)F)cc1)C(=O)c1ccc2nc(N)c3c(c2c1)COC3"
assigned_label = "true"


---

Below, each entry is listed with its recorded pIC50.
Tested on: HCT116 WT cells
assay-text: HCT116 WT cell proliferation / viability (CellTiter-Glo, 6 days)
Type: cell-based
measurement-setup: Homo sapiens, HCT-116, 144 h, HCT116 WT cells, 6 days, CellTiter-Glo; read-out: HCT-116 WT IC50
pIC50: −log10 of the molar value.
experimental-readout: pIC50

[[record]]
compound = "CC(C)N(Cc1ccc(C(F)(F)F)cn1)C(=O)c1ccc2[nH]c(=O)n3nccc3c2c1"
experimental_readout = "pIC50"
qualifier_operator = "="
readout_number = 4.63

[[record]]
compound = "Nc1nc2cnc(C(=O)N(Cc3ccc(Br)nn3)CC3CC3)cc2c2c1COC2"
experimental_readout = "pIC50"
qualifier_operator = "="
readout_number = 5.40

[[record]]
compound = "COc1cc(C(F)(F)F)cnc1[C@@H](C)N(C)C(=O)c1cc2c(cc1F)nc(N)c1c2cnn1C (single isomer, unassigned)"
experimental_readout = "pIC50"
qualifier_operator = "="
readout_number = 4.95

[[record]]
compound = "CC[C@H](c1cncnc1)N(Cc1ccc(S(F)(F)(F)(F)F)cc1)C(=O)c1cc2c(cn1)nc(N)c1cnn(C)c12 (single isomer, unassigned)"
experimental_readout = "pIC50"
qualifier_operator = "="
readout_number = 7.11

[[record]]
compound = "CCN(Cc1ccc(C(F)(F)F)cn1)C(=O)c1cc2c3c(c(N)nc2cn1)COC3"
experimental_readout = "pIC50"
qualifier_operator = "="
readout_number = 5.11

[[record]]
compound = "Cn1cc(N(Cc2ccc(C(F)(F)F)cn2)C(=O)c2cc3c(cc2F)nc(N)c2cnn(C)c23)cn1"
experimental_readout = "pIC50"
qualifier_operator = "="
readout_number = 7.00

[[record]]
compound = "C[C@H](c1ccc(C(F)(F)F)cc1)N(C)C(=O)c1cc2c3c(c(N)nc2cc1F)COC3 (single isomer, unassigned)"
experimental_readout = "pIC50"
qualifier_operator = "="
readout_number = 5.96

[[record]]
compound = "CCN(C(=O)c1cc2c3c(c(N)nc2cn1)COC3)[C@@H](C)c1ccc(C(F)(F)F)cn1 (single isomer, unassigned)"
experimental_readout = "pIC50"
qualifier_operator = "="
readout_number = 4.58

[[record]]
compound = "C[C@H](c1ccc(C(F)(F)F)nn1)N(C)C(=O)c1cc2c(cc1C(F)(F)F)nc(N)c1cnn(C)c12 (single isomer, unassigned)"
experimental_readout = "pIC50"
qualifier_operator = "="
readout_number = 4.91

[[record]]
compound = "CCOc1ccc(CN(C(=O)c2cc3c4c(c(N)nc3cn2)[C@@H](C)OC4)[C@H](C)COC)nn1"
experimental_readout = "pIC50"
qualifier_operator = "="
readout_number = 5.96

[[record]]
compound = "CC1OCc2c1c(N)nc1ccc(C(=O)N(Cc3ccc(C(F)(F)F)cn3)[C@H]3[C@@H]4COC[C@@H]43)cc21 (some centres unmarked)"
experimental_readout = "pIC50"
qualifier_operator = "<"
readout_number = 5.00

[[record]]
compound = "Nc1nc2cc(Cl)c(C(=O)N(Cc3ccc(C(F)(F)F)nn3)CC3CC3)cc2c2c1COC2"
experimental_readout = "pIC50"
qualifier_operator = "="
readout_number = 5.99

[[record]]
compound = "CC(C)CN(Cc1ccc(C(F)(F)F)cn1)C(=O)c1cnc2nc(N)c3c(c2c1)COC3"
experimental_readout = "pIC50"
qualifier_operator = "="
readout_number = 5.51

[[record]]
compound = "CCOc1ccc(CN(CC2CC2)C(=O)c2cc3c(cc2F)nc(N)c2c3cnn2C)nn1"
experimental_readout = "pIC50"
qualifier_operator = "="
readout_number = 5.70

[[record]]
compound = "CC1OCc2c1c(N)nc1ccc(C(=O)N(Cc3ccc(C#N)cn3)CC3CCOCC3)cc21 (centres unmarked)"
experimental_readout = "pIC50"
qualifier_operator = "="
readout_number = 5.74

[[record]]
compound = "C[C@H](CF)N(Cc1ccc(C#N)cn1)C(=O)c1cc2c3c(c(N)nc2cn1)COC3 (single isomer, unassigned)"
experimental_readout = "pIC50"
qualifier_operator = "<"
readout_number = 5.00

[[record]]
compound = "CCOc1ccc(CN(C(=O)c2ccc3nc(N)c4c(cnn4C)c3c2)[C@H](C)c2ncccn2)nn1"
experimental_readout = "pIC50"
qualifier_operator = "="
readout_number = 6.18

[[record]]
compound = "CCN(Cc1ccc(C(F)(F)F)cn1)C(=O)c1cc2c(cc1F)nc(N)c1c2cnn1C"
experimental_readout = "pIC50"
qualifier_operator = "="
readout_number = 5.78

[[record]]
compound = "CCOc1ccc(CN(CC(C)C)C(=O)c2ccc3nc(N)c4c(c3c2)COC4)nn1"
experimental_readout = "pIC50"
qualifier_operator = "="
readout_number = 5.88

[[record]]
compound = "C[C@H](c1ncccn1)N(Cc1ccc(C#N)cn1)C(=O)c1ccc2nc(N)c3ccccc3c2c1"
experimental_readout = "pIC50"
qualifier_operator = "="
readout_number = 6.39

[[record]]
compound = "N#CC[C@H](C1CC1)N(Cc1ccc(C#N)cn1)C(=O)c1ccc2nc(N)c3c(c2c1)COC3 (single isomer, unassigned)"
experimental_readout = "pIC50"
qualifier_operator = "="
readout_number = 4.99

[[record]]
compound = "Nc1nc2ccc(C(=O)N(Cc3ccc(N4CCOCC4)nn3)CC3CC3)cc2c2c1COC2"
experimental_readout = "pIC50"
qualifier_operator = "="
readout_number = 5.80

[[record]]
compound = "C[C@@H]1OCc2c1c(N)nc1cnc(C(=O)N(Cc3ccc(C(F)(F)F)cn3)C34CC(C3)C4)cc21"
experimental_readout = "pIC50"
qualifier_operator = "<"
readout_number = 5.00


Data credit: patent US20240101570A1
